test system: Radical scavenging activity; assay: Antioxidant activity assessed as inhibition of DPPH-induced free radical generation at 80 uM after 30 mins relative to control; assay type: functional
Activity calls are given as the source filed them. No cut-off for these calls is given here.
readout_kind: inhibition

                                    compound  readout_kind  observed
 0  COc1cc(O)ccc1/C=C/C1=CC(=O)[C@H]2C[C@@H]1C2(C)C    inhibition     38.1%
 1  CC1(C)[C@@H]2C[C@H]1C(/C=C/c1cccc(O)c1)=CC2=O    inhibition  inactive
 2  CC1(C)[C@@H]2C[C@H]1C(/C=C/c1ccc(O)c(Br)c1)=CC2=O    inhibition     29.4%
 3  CC1(C)[C@@H]2C[C@H]1C(/C=C/c1ccc(F)cc1)=CC2=O    inhibition  inactive
 4  COc1ccc(/C=C/C2=CC(=O)[C@H]3C[C@@H]2C3(C)C)cc1OC    inhibition  inactive
 5  CC1(C)[C@@H]2C[C@H]1C(/C=C/c1ccncc1)=CC2=O    inhibition  inactive
 6  CC1(C)[C@@H]2C[C@H]1C(/C=C/c1cccnc1)=CC2=O    inhibition  inactive
 7  CC1(C)[C@@H]2C[C@H]1C(/C=C/c1ccc(-c3ccccc3)cc1)=CC2=O    inhibition  inactive
 8  CC1(C)[C@@H]2C[C@H]1C(/C=C/c1ccccc1O)=CC2=O    inhibition     4.64%
 9  COc1ccc(/C=C/C2=CC(=O)[C@H]3C[C@@H]2C3(C)C)cc1    inhibition  inactive
10  CC1(C)[C@@H]2C[C@H]1C(/C=C/c1ccccn1)=CC2=O    inhibition  inactive
11  CC1=CC(=O)[C@H]2C[C@@H]1C2(C)C [LEVOVERBENONE]    inhibition  inactive
12  COc1ccc(OC)c(/C=C/C2=CC(=O)[C@H]3C[C@@H]2C3(C)C)c1    inhibition  inactive
13  COc1ccc(/C=C/C2=CC(=O)[C@H]3C[C@@H]2C3(C)C)c(O)c1    inhibition     51.2%
14  COc1cc(/C=C/C2=CC(=O)[C@H]3C[C@@H]2C3(C)C)cc(O)c1O [SP-8356]    inhibition     83.6%
15  CC1(C)[C@@H]2C[C@H]1C(/C=C/c1ccc(O)c(O)c1)=CC2=O    inhibition     91.6%
16  CC1(C)[C@@H]2C[C@H]1C(/C=C/c1ccc(O)cc1)=CC2=O    inhibition     19.1%
17  CC1(C)[C@@H]2C[C@H]1C(/C=C/c1ccccc1)=CC2=O    inhibition  inactive
18  COc1cc(/C=C/C2=CC(=O)[C@H]3C[C@@H]2C3(C)C)cc(OC)c1    inhibition  inactive
19  CC1(C)[C@@H]2C[C@H]1C(/C=C/c1ccc(-n3cccc3)cc1)=CC2=O    inhibition  inactive
20  COc1cc(O)cc(OC)c1/C=C/C1=CC(=O)[C@H]2C[C@@H]1C2(C)C    inhibition     55.8%
